- assay-comment: E Log D, chromatographic method (Assay 13)
- Format: physicochemical
- assay-context: SUPELCOSIL LC-ABZ column with octanol saturated mobile phase, pH 7.4; read-out: E Log D7.4
assay-endpoint: chromatographic logD
Numbers only.

Some solved entries appear below for comparison.
compound	assay-endpoint	recorded-measurement
Cn1cnc(CCNC(=O)c2ccc3c(Cl)cc(Cl)c(O)c3n2)c1	chromatographic logD	2.98
CN(C)Cc1ccc2c(Cl)cc(Cl)c(O)c2n1.Cl [compound 1033, hydrochloride]	chromatographic logD	1.32
CCNCc1ccc2c(Cl)cc(Cl)c(O)c2n1.Cl [compound 1051, hydrochloride]	chromatographic logD	2.64
O=C(NCCc1c[nH]cn1)c1ccc2c(Cl)cc(Cl)c(O)c2n1	chromatographic logD	2.92

Let us move to another entry and its chromatographic logD.
Input: May I ask what chromatographic logD has been recorded for `Oc1c(Cl)cc(Cl)c2ccc(-c3ccccn3)nc12` ?
Output: 2.85

---

- Test system: Neuronal cortical cells
- assay-comment: Assay for test compound cytoxicity, MTS (Assay 3(d))
- Assay type: cell-based, mouse
- assay-context: BL6J×129sv, mouse, 4 days, 10 uM
The label is TRUE for Test Compound Cytoxicity 10 uM below 60 and FALSE for Test Compound Cytoxicity 10 uM equal to or exceeding 60.

compound	discrete-label
CN(c1ccccn1)c1ccc2c(Cl)cc(Cl)c(O)c2n1 [compound 1056]	FALSE
O=C(O)c1ccc2c(Cl)cc(Cl)c(O)c2n1 [compound 1039]	FALSE
Oc1c(I)cc(Cl)c2cccnc12 [compound 1, clioquinol, reference compound]	FALSE
Oc1cccc2ccc(CN(Cc3ccccn3)Cc3ccccn3)nc12 [compound 1010]	TRUE
CO/N=C/c1ccc2c(Cl)cc(Cl)c(O)c2n1 [compound 1032]	TRUE
NCc1ccc2cccc(O)c2n1 [compound 968]	FALSE
Oc1cccc2ccc(CN(CCc3c[nH]cn3)Cc3nccs3)nc12 [compound 1002]	TRUE
O=C(NCCc1c[nH]cn1)c1ccc2cccc(O)c2n1 [compound 948]	FALSE

Now turn to the next compound.
Input: I'd appreciate it if you could check whether CCNCc1ccc2c(Cl)cc(Cl)c(O)c2n1.Cl [compound 1051] has Test Compound Cytoxicity 10 uM smaller than 60.
Output: TRUE

---

- Test system: Neuronal cortical cells
- assay-comment: Assay for test compound cytoxicity, MTS (Assay 3(d))
- Format: cell-based, mouse
- assay-context: BL6J×129sv, mouse, 4 days, 10 uM
Give 1 when the value for Viable 10 uM is at least 80. Give 0 when it is less.

Worked examples, 3 molecules total:
molecule	discrete-label
O=C(NCCc1cnc[nH]1)c1cc(O)c2cccc(O)c2n1 [compound 954]	1
Oc1ccc(/C=C/c2ccc3cccc(O)c3n2)cc1 [compound 89]	0
Oc1cccc2ccc(CNCCc3c[nH]cn3)nc12 [compound 989]	0

Input: Hello, I need to know if Oc1c(I)cc(I)c2cccnc12 [compound 46] has measured Viable 10 uM not below 80. Thanks!
Output: 1

Input: Hello, I need to know if Cc1ccccc1-c1cc(I)c(O)c2ncccc12 [compound 861] has measured Viable 10 uM not below 80. Thanks!
Output: 0

Input: Hello, I need to know if Oc1c(Cl)cc(Cl)c2cc(Cl)cnc12 [compound 1058, 3,5,7-trichloro-8-hydroxyquinoline] has measured Viable 10 uM not below 80. Thanks!
Output: 0

Input: Hello, I need to know if Oc1c(-c2cccc(F)c2)cc(Cl)c2cccnc12 [compound 850] has measured Viable 10 uM not below 80. Thanks!
Output: 0

Input: Hello, I need to know if Oc1c(Br)cc(-c2cc(F)cc(F)c2)c2cccnc12 [compound 853] has measured Viable 10 uM not below 80. Thanks!
Output: 1

Input: Hello, I need to know if CN(CCc1ccccn1)Cc1ccc2cccc(O)c2n1 [compound 990] has measured Viable 10 uM not below 80. Thanks!
Output: 0
